The following sequences are listed with their measured PBM binding z-score values.
- Tested on: LXRa homodimer (NR concentration 270 nM)
- Experimental Details: PBM binding z-score (relative to random genomic background probes); higher = stronger binding; sequences stand for … in GC…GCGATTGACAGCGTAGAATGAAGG
Note: the reply should be a number with no unit written.

Recorded PBM binding z-score, per entry:
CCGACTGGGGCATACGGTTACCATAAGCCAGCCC | -0.334
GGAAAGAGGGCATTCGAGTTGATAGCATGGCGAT | 0.148
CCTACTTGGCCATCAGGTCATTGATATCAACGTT | 2.06
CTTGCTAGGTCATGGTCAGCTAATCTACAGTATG | 0.466
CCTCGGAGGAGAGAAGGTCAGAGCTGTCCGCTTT | -0.155

Could you share which PBM binding z-score value was measured for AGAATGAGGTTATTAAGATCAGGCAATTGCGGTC ?
0.308

----------
- System: RARg homodimer (NR concentration 270 nM)
- Experimental Details: PBM binding z-score (relative to random genomic background probes); higher = stronger binding; sequences stand for … in GC…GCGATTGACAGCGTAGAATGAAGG
The following sequences are listed with their measured PBM binding z-score values.
Note: the reply should be a number with no unit written.

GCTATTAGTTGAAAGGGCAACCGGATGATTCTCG | 1.33
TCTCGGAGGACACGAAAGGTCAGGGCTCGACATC | 5.69
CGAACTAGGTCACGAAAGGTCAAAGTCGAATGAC | 8.67
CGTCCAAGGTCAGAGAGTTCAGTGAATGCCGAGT | 6.4
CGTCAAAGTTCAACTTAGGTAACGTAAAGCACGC | 6.72

Could you share which PBM binding z-score value was measured for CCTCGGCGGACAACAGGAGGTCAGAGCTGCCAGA ?
2.04

Same thing, different sequence: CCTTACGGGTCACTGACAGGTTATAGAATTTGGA
4.95

Same thing, different sequence: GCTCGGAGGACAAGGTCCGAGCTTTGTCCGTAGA
0.242

----------
- System: RARa homodimer (NR concentration 270 nM)
- Experimental Details: PBM binding z-score (relative to random genomic background probes); higher = stronger binding; sequences stand for … in GC…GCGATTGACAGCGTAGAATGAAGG
Criterion met means recorded PBM binding z-score is 0.6 or above; Criterion not met means it is below 0.6.

Exam item: decide whether the reported PBM binding z-score for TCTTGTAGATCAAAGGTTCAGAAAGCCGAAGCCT is at least 0.6.
Criterion not met

Same thing, different sequence: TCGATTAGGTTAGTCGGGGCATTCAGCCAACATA
Criterion not met

Same thing, different sequence: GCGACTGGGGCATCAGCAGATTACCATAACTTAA
Criterion not met

----------
- System: THRa:RXRa (NR concentration 90 nM, RXRa partner concentration 90 nM)
- Experimental Details: PBM binding z-score (relative to random genomic background probes); higher = stronger binding; sequences stand for … in GC…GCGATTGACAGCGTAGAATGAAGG
label 1 means recorded PBM binding z-score is 0.8 or above; label 0 means it is below 0.8.

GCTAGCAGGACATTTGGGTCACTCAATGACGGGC | label 1
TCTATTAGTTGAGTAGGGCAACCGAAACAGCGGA | label 0
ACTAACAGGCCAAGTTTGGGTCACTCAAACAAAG | label 1

Exam item: decide whether the reported PBM binding z-score for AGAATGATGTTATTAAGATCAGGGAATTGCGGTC is at least 0.8.
label 0

Same thing, different sequence: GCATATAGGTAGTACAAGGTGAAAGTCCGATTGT
label 1
